Measured IC50, listed per entry for reference.
# target.desc: wild-type Epidermal Growth Factor Receptor (EGFR) (Homo sapiens (Human))
# Sequence (P00533 669-1210): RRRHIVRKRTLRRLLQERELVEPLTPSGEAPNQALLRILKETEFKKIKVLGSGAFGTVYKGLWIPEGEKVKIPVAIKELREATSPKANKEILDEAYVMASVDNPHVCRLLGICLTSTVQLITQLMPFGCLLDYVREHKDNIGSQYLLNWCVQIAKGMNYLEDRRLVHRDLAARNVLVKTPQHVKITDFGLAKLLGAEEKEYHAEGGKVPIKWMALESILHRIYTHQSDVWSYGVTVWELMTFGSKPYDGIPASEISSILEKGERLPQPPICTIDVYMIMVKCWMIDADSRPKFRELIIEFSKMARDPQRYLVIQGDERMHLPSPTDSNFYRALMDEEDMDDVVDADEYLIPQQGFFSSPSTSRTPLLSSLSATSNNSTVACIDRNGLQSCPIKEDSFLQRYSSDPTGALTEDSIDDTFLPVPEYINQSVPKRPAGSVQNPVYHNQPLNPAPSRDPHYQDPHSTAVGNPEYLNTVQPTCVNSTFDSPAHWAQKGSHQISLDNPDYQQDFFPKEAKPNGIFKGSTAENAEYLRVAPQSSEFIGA
# method.notes: WT-EGFR Kinase Assay (TR-FRET, 2 mM ATP)
# Type: biochemical
# run.parameters: EGFR Wildtyp 2 mM ATP IC50 [mol/l] (median), median or individual measurements

For this compound ( Cn1ccc2[nH]c(-c3ccnc(NC(=O)C(CC(F)F)c4ccc(F)cc4)c3)c(-c3ccc(F)cc3)c2c1=O (single isomer, unassigned; (-)) [Example 108] ), measured IC50 is 0.663 µM

For this compound ( O=C(Nc1cc(-c2[nH]c3c(Cl)cn(C4CC4)c(=O)c3c2-c2ccc(F)cc2)ccn1)C(CC(F)F)c1ccc(F)cc1 (racemic) ), measured IC50 is > 20 µM

For this compound ( Cn1ccc2[nH]c(-c3ccnc(NC(=O)C(CC(F)F)c4ccc(F)cc4)c3)c(-c3ccc(Cl)s3)c2c1=O (racemic) ), measured IC50 is > 20 µM

For this compound ( CC(C(=O)Nc1cc(-c2[nH]c3ccn(C)c(=O)c3c2-c2cccs2)ccn1)c1ccc(F)cc1 (racemic) ), measured IC50 is > 20 µM

For this compound ( CC(C(=O)Nc1cc(-c2[nH]c3c(CC4CC4)cn(C)c(=O)c3c2-c2ccc(F)cc2)ccn1)c1ccc(F)cc1 (racemic) ), measured IC50 is > 20 µM

Continuing:
For this compound ( CN1CCc2[nH]c(-c3ccnc(NC(=O)C(CC(F)F)c4ccc(F)cc4)c3)c(-c3cc(F)ccc3C#N)c2C1=O (racemic) ), measured IC50 is > 20 µM

Where do these numbers come from? They come from patent US20230322767A1.
